Measurement notes: qHTS assay for identifying genotoxic compounds that show differential cytotoxicity against isogenic chicken DT40 cell lines with known DNA damage response pathways - Rad54/Ku70 mutant cell line (AID 743015); note: nearly all actives have a fitted effect of over 60% in size
Measurement conditions: DT40 Rad54/Ku70 mutant viability, CellTiter-Glo, 40 h; series mostly up to 66.8 µM
Results filed as inconclusive are left out. Calls of active or inactive are those of the source. Calls come from the whole dose curve; as a rule, active = well fitted cell-killing curve with a large enough effect in the repeat runs; inconclusive = weak or mixed curves; inactive = no such curve, though single readings can be large or run the other way.
Labels: yes for active, no for inactive

> print(dat)
                                    compound  assigned.label
 1                     CCC1(CC)C(=O)C=CNC1=O              no
 2                       Cc1cccc2sc3nncn3c12              no
 3                   Cn1c(N)nc2c3cccnc3ccc21              no
 4                         O=C(O)C(Br)(Br)Br              no
 5  C=C1C[C@@H]2[C@H](CC[C@]3(C)C(=O)CC[C@@H]23)[C@@]2(C)C=CC(=O)C=C12             yes
 6           O=C1CCCCC1Cl (stereo not given)              no
 7             CCOc1cc(OP(=S)(OC)OC)nc(CC)n1              no
 8  ClC1=C(Cl)C2(Cl)C(CBr)CC1(Cl)C2(Cl)Cl (stereo not given)             yes
 9                                  NNC(N)=O              no
10                      CC(C)(C)C(=O)C(Cl)Cl              no
11                                O=C(Cl)CCl              no
12  CC(C)NCC(O)c1ccc([N+](=O)[O-])cc1 (stereo not given)              no
13              Nc1c(Cl)c(F)nc(OCC(=O)O)c1Cl              no
14                                CCCCCCCCBr              no
15                                    C=CC=O              no

###

Measurement notes: A CellTox Green Cytotoxicity Assay to monitor cytotoxicity in HepG2 cells - 16 hour (AID 1224876); note: nearly all actives have a fitted effect of over 45% in size
Measurement conditions: CellTox Green fluorescence; series mostly up to 76.8 µM
Results filed as inconclusive are left out. Calls of active or inactive are those of the source. Calls come from the whole dose curve; as a rule, active = well fitted activation curve with a large enough effect in the repeat runs; inconclusive = weak or mixed curves; inactive = flat fitted curve, though single readings scatter.
Reported endpoint: cytotoxicity increase

> print(dat)
                                    compound    result
 1               CC(O)CCl (stereo not given)  inactive
 2              Nc1c(Cl)c(F)nc(OCC(=O)O)c1Cl  inactive
 3                             O=S1(=O)OCCO1  inactive
 4                O=c1[nH]c2ccccc2n1C1CCNCC1  inactive
 5    CC(Cc1ccccc1)NCCCCl (stereo not given)  inactive
 6                CCNc1nc(Cl)nc(NC(C)(C)C)n1  inactive
 7            CC(C)N(Cc1ccccc1)C(=O)C(C)(C)C  inactive
 8                       CC(C)(N)Cc1ccccc1Cl  inactive
 9                               CCCCOC(C)=O  inactive
10  C[C@]12C=CC(=O)C=C1CC[C@@H]1[C@@H]2CC[C@@]2(C)[C@H]1CC[C@]2(C)O  inactive
11                        Cc1ccc2cc(C)ccc2c1  inactive
12                                     S=C=S  inactive
13                  CON(C)C(=O)Nc1ccc(Br)cc1  inactive
14                       CC(C)(O)C(Cl)(Cl)Cl  inactive
15  CC[C@H](O)C(C[C@H](C)N(C)C)(c1ccccc1)c1ccccc1  inactive
16                         O=C(Cl)OCc1ccccc1  inactive
17                   Oc1ccc(Cc2ccc(O)cc2)cc1  inactive
18                 O=[N+]([O-])c1cccc(CCl)c1  inactive
19                CNC(=O)O/N=C(/CSC)C(C)(C)C  inactive
20                          C=CC(=O)OCCN(C)C  inactive
21  CCCOC(=O)c1cncn1C(C)c1ccccc1 (stereo not given)  inactive
22              O=C(O)c1c(Cl)ccc2cc(Cl)cnc12  inactive
23                           O=C/C=C/c1ccco1  inactive
24  CN1C(=O)COc2c(C(=O)NC3CN4CCC3CC4)cc(Cl)cc21 (stereo not given)  inactive
25      CC1NCCOC1c1ccccc1 (stereo not given)  inactive
26                      CC(C)(C)C(=O)C(Cl)Cl  inactive
27  CCCOc1nn(C(=O)NS(=O)(=O)c2ccccc2C(=O)OC)c(=O)n1C  inactive
28                         O=C(O)C(Br)(Br)Br  inactive
29  CC(C)[N+](C)(CCC(C(N)=O)(c1ccccc1)c1ccccc1)C(C)C  inactive
30     CCN(CC)CCOC(=O)C(O)(c1ccccc1)c1ccccc1  inactive
